Test system: U251 CNS
test name: NCI-60 one-dose screen, 48 h
assay conditions: 10 µM unless noted
The panel holds about 83,000 compounds, 20% with a hit somewhere; the sample as a whole holds those more often. Active and inactive are the calls of the source. How the source made its calls: active means growth percent below 10; inactive means the rest.
Outcomes: YES (active), NO (inactive)

- CC(C)(C)c1cc(C(=O)Nc2ccccc2C(=O)NCCN)cc(C(C)(C)C)c1: YES
- C=C(C)[C@@H]1CC[C@]2(C)[C@H](C(=O)C=C3[C@@H]4C[C@](C)(C(=O)N5CCN(C)CC5)CC[C@]4(C)CC[C@]32C)[C@@]1(C)CCC#N: YES
- CC1(C)OC2[C@@H](CNC(=O)NC(=O)NC(=O)CI)O[C@@H](n3cnc4c(NC(=O)Nc5ccccc5)ncnc43)[C@H]2O1 (stereo partly specified): NO
- CCCCOC(=O)c1c(C)[nH]c(/C=C2\N=C(c3ccc[nH]3)C=C2OC)c1C: YES
- COC(=O)[C@H](CC(C)C)NC(=O)NC(=O)NC(=O)CI: NO
- CC[C@]12C=CCN3CC[C@@]4(c5ccc(OC)cc5N(C)[C@H]4[C@@](O)(C(=O)OC)[C@@H]1OC(=O)CCC(=O)N[C@H](Cc1c[nH]c4ccccc14)C(=O)OC)[C@@H]32: YES
- COc1ccc(-c2cc(-c3ccccc3)nc(NCCNc3ccnc4cc(Cl)ccc34)n2)cc1: YES
- CN(C)C(=S)Sc1ccc([N+](=O)[O-])cc1[N+](=O)[O-]: YES
- COc1ccc(-c2cc(-c3ccccc3)nc(SCCCCCC(=O)NO)n2)cc1: NO
- COc1ncc(-c2ccc3nccc(C#CCCCCC(=O)NO)c3c2)cc1NS(=O)(=O)c1ccc(F)cc1F: YES
- C/C=C/C1OC23CCCCC2C(C#N)(C(=N)O3)C1(C#N)C#N (stereo unspecified): NO
- C1=C[C@H]2O[C@@H]1c1ccc3[nH]ccc3c12: NO
- CCCCCCSc1ncnc2nc[nH]c12: NO
- CCCC[C@@H](C=O)NC(=O)[C@H](CC(C)C)NC(=O)[C@H](CC(C)C)NC(=O)OCc1ccccc1: YES
- COCc1nc2ccccc2[nH]1: NO
- CCCCCn1sc(=O)n(Cc2ccc(CNC(=O)OCc3ccc4cccc(O)c4n3)cc2)c1=O: NO
- CC(C)[C@H]1COC(=O)N1[C@@H]1C(=O)N([C@@H](CCC(=O)N2CCN(C3CCCC3)CC2)C(=O)N[C@@H]2CCCc3ccccc32)[C@@H]1/C=C/c1cccc(Cl)c1: NO
- CCN=Cc1c(O)c(O)c(C(C)C)c2cc(C)c(-c3c(C)cc4c(C(C)C)c(O)c(O)c(C=NCC)c4c3O)c(O)c12: NO
- COc1ccc(-c2cc(-c3ccc(OC)c(OC)c3)nc(SCCCCCC(=O)NO)n2)cc1: NO
- C=C(C)[C@@H]1CC[C@]2(C(N)=O)CC[C@]3(C)[C@H](CC[C@@H]4[C@@]5(C)CC[C@H](O)C(C)(C)[C@@H]5CC[C@]43C)[C@@H]12: YES
- COc1ccc(C(=O)/C=C/c2ccccn2)c(O)c1: NO
- Cc1ncc(C(=O)Nc2ccc(CN3CCN(C)CC3)c(C(F)(F)F)c2)cc1C#Cc1c(N)ncc2ccc(C#N)cc12: NO
- CCN(CC)c1ccc2cc(C(Nc3ccc(Br)c(C(F)(F)F)c3)c3nnnn3C(C)(C)C)c(=O)oc2c1 (stereo unspecified): NO
- Cn1cc(-c2nnc(-c3cn(C)c4ncc(Br)cc34)o2)c2ccccc21: NO
- CCOC(=O)c1cc(C(=O)c2ccc(OC)c(OC)c2)n2ccc(-c3ccccn3)cc12: NO
- CCN(CC)CCCCCCNc1cccc2cc(Br)cnc12: NO
- C#C[C@]1(O)CC[C@H]2[C@@H]3CC=C4c5nc(Nc6ccc(OC)cc6OC)sc5CC[C@]4(C)[C@H]3CC[C@@]21C: YES
- COc1ccc(OC)c(NC=O)c1: NO
- CC(C)(C)c1cc(C(=O)N2CCC(C(=O)NCCN)CC2)cc(C(C)(C)C)c1: NO
- CC(C)=CC/C=C(/C)[C@H]1CC[C@]2(C)[C@@H]1CC[C@@H]1[C@@]3(C)CCCNC(C)(C)[C@@H]3CC[C@]12C: YES
- C=C(C)[C@@H]1CC[C@]2(C(=O)O)CC[C@]3(C)[C@H](CC[C@@H]4[C@@]5(C)C/C(=C/c6ccco6)C(=O)C(C)(C)[C@@H]5CC[C@]43C)[C@@H]12: YES
- CCn1cc(-c2ccnc(NCCNS(=O)(=O)c3cccc4ccccc34)c2)c(-c2cccc(O)c2)n1: NO
- CCOC(=O)C(c1ccccc1)N1C(=O)c2ccccc2C1=O (stereo unspecified): NO
- C=CCCC1(C)NC(=O)NC1=O (stereo unspecified): NO
- C[n+]1c2ccccc2nc2c(N)cc(N)cc21: YES
- COc1cc2c(c(Br)c1N)-c1cc(Br)c(N)cc1C2=O: NO
